AUC(0-t) values, listed per item
experiment: Single dose oral pharmacokinetic study; type: in vivo; settings: mouse, mice, 30 mg/kg, plasma, read-out: Mice oral PK @30 mg/kg AUC 0-t
quantity-measured: AUC(0-t) (µg·h/mL)

INSERT INTO results (smiles_entry, recorded_measurement) VALUES
  ('CC1([C@@H]2CC[C@]3(C(=O)N4CCC[C@H]4c4ncc(-c5ccccn5)[nH]4)CC[C@]4(C)[C@H](CC[C@@H]5[C@@]6(C)CC[C@H](OC(=O)[C@H]7C[C@@H](C(=O)O)C7(C)C)C(C)(C)[C@@H]6CC[C@]54C)[C@@H]23)CC1', 160),
  ('CC1([C@@H]2CC[C@]3(C(=O)N4CCC[C@H]4c4ncc(C(F)(F)F)[nH]4)CC[C@]4(C)[C@H](CC[C@@H]5[C@@]6(C)CC[C@H](OC(=O)[C@H]7C[C@@H](C(=O)O)C7(C)C)C(C)(C)[C@@H]6CC[C@]54C)[C@@H]23)CC1', 451),
  ('C=C(C)[C@@H]1CC[C@]2(C(=O)N3CCC[C@H]3c3ncc(-c4cccc(F)c4)[nH]3)CC[C@]3(C)[C@H](CC[C@@H]4[C@@]5(C)CC[C@H](OC(=O)[C@H]6C[C@@H](C(=O)O)C6(C)C)C(C)(C)[C@@H]5CC[C@]43C)[C@@H]12', 398),
  ('C=C(C)[C@@H]1CC[C@]2(C(=O)N3CCC[C@H]3c3nc(-c4cccc(Cl)c4)c[nH]3)CC[C@]3(C)[C@H](CC[C@@H]4[C@@]5(C)CC[C@H](OC(=O)[C@H]6C[C@@H](C(=O)O)C6(C)C)C(C)(C)[C@@H]5CC[C@]43C)[C@@H]12', 248),
  ('C=C(C)[C@@H]1CC[C@]2(C(=O)N3CCC[C@H]3c3ncc(-c4ccccc4)o3)CC[C@]3(C)[C@H](CC[C@@H]4[C@@]5(C)CC[C@H](OC(=O)[C@H]6C[C@@H](C(=O)O)C6(C)C)C(C)(C)[C@@H]5CC[C@]43C)[C@@H]12', 208),
  ('COCCO[C@@H]1C[C@@H](c2nc(-c3ccc(F)cc3)c[nH]2)N(C(=O)[C@]23CC[C@@H](C4(C)CC4)[C@@H]2[C@H]2CC[C@@H]4[C@@]5(C)CC[C@H](OC(=O)[C@H]6C[C@@H](C(=O)O)C6(C)C)C(C)(C)[C@@H]5CC[C@@]4(C)[C@]2(C)CC3)C1', 381),
  ('C=C(C)[C@@H]1CC[C@]2(C(=O)N3CCC[C@H]3c3ncc(-c4ccccn4)[nH]3)CC[C@]3(C)[C@H](CC[C@@H]4[C@@]5(C)CC[C@H](OC(=O)[C@H]6C[C@@H](C(=O)O)C6(C)C)C(C)(C)[C@@H]5CC[C@]43C)[C@@H]12', 177);
